# System: Phakopsora pachyrhizi
# assay_name: Phakopsora pachyrhizi test in soybean (preventive, glasshouse)
# Format: in vivo
# measurement_setup: Phakopsora pachyrhizi; single compound, 0.1 ppm, preventive spray on soybean; read-out: Observed Efficacy (%)
Reported pest or weed control at 0.1 ppm is given for each of the following compounds.
measurement_name: pest or weed control at 0.1 ppm

>>> df
                                   compound                 measurement_name  experimental_value
0  CC(C)(C)C(O)(CCc1ccc(Cl)cc1)Cn1cncn1 (stereo not drawn) [Tebuconazole, tebuconazole]  pest or weed control at 0.1 ppm                 44%
1  O=C(NCCc1ncc(C(F)(F)F)cc1Cl)c1ccccc1C(F)(F)F [Fluopyram]  pest or weed control at 0.1 ppm                 10%
2  O=C(Nc1ccccc1-c1ccc(Cl)cc1)c1cccnc1Cl [Boscalid, boscalid]  pest or weed control at 0.1 ppm                 32%
3  O=C1c2ccccc2C(=O)N1SC(Cl)(Cl)Cl [Folpet, folpet]  pest or weed control at 0.1 ppm                 12%
4  CON=C(C(=O)OC)c1ccccc1CON=C(C)c1cccc(C(F)(F)F)c1 [Trifloxystrobin, trifloxystrobin]  pest or weed control at 0.1 ppm                 32%
5  CC1CC(C)(C)c2c(F)ccc(NC(=O)c3cn(C)nc3C(F)F)c21 (stereo not drawn) [Fluindapyr]  pest or weed control at 0.1 ppm                 30%
6  O=[N+]([O-])c1cc(C(F)(F)F)c(Cl)c([N+](=O)[O-])c1Nc1ncc(C(F)(F)F)cc1Cl [Fluazinam]  pest or weed control at 0.1 ppm                 10%
7  CC1COC(Cn2cncn2)(c2ccc(Oc3ccc(Cl)cc3)cc2Cl)O1 (stereo not drawn) [Difenconazole, difenoconazole]  pest or weed control at 0.1 ppm                 24%
8  N#Cc1sc2c(=O)c3ccccc3c(=O)c=2sc1C#N [Dithianon, dithianon]  pest or weed control at 0.1 ppm                 24%
